- target_under_test: D(2) dopamine receptor (Homo sapiens) (UniProt P14416)
- Sequence (P14416 whole entry, looked up): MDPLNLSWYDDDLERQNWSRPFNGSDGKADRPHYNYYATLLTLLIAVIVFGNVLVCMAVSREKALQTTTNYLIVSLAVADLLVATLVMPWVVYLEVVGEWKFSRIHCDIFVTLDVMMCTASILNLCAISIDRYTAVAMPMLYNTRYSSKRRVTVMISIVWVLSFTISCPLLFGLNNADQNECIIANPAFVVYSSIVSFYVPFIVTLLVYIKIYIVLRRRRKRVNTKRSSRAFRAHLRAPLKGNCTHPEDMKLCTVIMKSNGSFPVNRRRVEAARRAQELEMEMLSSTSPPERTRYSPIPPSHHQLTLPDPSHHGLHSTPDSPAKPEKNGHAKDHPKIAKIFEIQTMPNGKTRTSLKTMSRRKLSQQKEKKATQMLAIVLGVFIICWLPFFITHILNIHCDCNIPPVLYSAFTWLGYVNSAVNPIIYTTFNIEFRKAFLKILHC
- test_name: HTS Assay for Positive Allosteric Modulators of the Human D2 Dopamine Receptor: Primary Screen for Potentiators; further: 0% is about no effect
- study_conditions: HEK293 T-REx D2, calcium flux, EC20 dopamine potentiation; at 10 µM; active compounds read high
The whole screen tested about 340,000 compounds, of which about 1,200 (0.35%) were called active. This is one part of a sample in which actives are shown more often than they occur.
measurement_name: potentiation (%)
Reply numerically in %, unit not repeated.

# compound, measurement_name, u, test_value
measured = [
    ("CCOc1cc2c(cc1OCC)C(C(=O)O)C(c1ccc(OC)c(O)c1)N(C)C2=O (configuration not stated)", "potentiation", "%", -25.6),
    ("Cc1cccc(NC(c2cccc(F)c2)c2ccc3ccc(C)nc3c2O)n1 (configuration not stated)", "potentiation", "%", 0.98),
    ("Cc1ccc(C(=O)CSc2nc3ccccc3c(=O)n2N)o1", "potentiation", "%", 2.64),
]

Tell me measured potentiation for COc1ccccc1N1CCN(c2ccc(=O)n(CC(=O)NCc3ccc(OC(C)C)cc3)n2)CC1 please.
-2.29

Tell me measured potentiation for O=C(Nc1ccc(S(=O)(=O)N2CCCCC2)cc1)c1cnccn1 please.
30.4

Tell me measured potentiation for COc1cccc(C(c2c(O)cc(C)n(Cc3ccco3)c2=O)N2CCN(c3ccccc3)CC2)c1 (configuration not stated) please.
-2.97

----------
- target_under_test: D(2) dopamine receptor (Homo sapiens)
- test_name: HTS Assay for Positive Allosteric Modulators of the Human D2 Dopamine Receptor: Primary Screen for Potentiators; further: 0% is about no effect
- study_conditions: HEK293 T-REx D2, calcium flux, EC20 dopamine potentiation; at 10 µM; active compounds read high
Among all 340,000 compounds or so, about 1,200 (0.35%) were called active. Shown is part of a subset that was picked to be rich in actives.
measurement_name: potentiation (%)
Reply numerically in %, unit not repeated.

Recorded results for 6 compounds are shown here.
# compound, potentiation [%]
records = [
    ("COc1ccc(-c2cn3nc(N4CCCC(C(=O)NCCCOC(C)C)C4)sc3n2)cc1 (stereo not given)", -3.35),
    ("CCOc1ccc(CCNC(=O)c2csc3c2CCCCC3)cc1", -0.665),
    ("O=C(CCNC(=O)c1ccc(Br)cc1)NCCCc1ccccc1", 33),
    ("CC(C)(C)c1ccc(C(=O)NCC(c2ccco2)S(=O)(=O)c2ccc(F)cc2)cc1 (stereo not given)", 2.19),
    ("COc1ccc(-n2ccn(CC(=O)Nc3ccc(C)c(C)c3)c(=O)c2=O)cc1OC", 6.27),
    ("NC(=O)CSc1nc2c(oc3ccccc32)c(=O)n1Cc1ccccc1", 4.88),
]

Tell me measured potentiation for COc1ccc(C2=NOC(C(=O)NCc3ccco3)C2)cc1OC (stereo not given) please.
32.1

Tell me measured potentiation for O=C(CCn1c(=O)c2ccccc2n(Cc2ccc(Cl)cc2)c1=O)NCc1ccc2c(c1)OCO2 please.
-11.6

Tell me measured potentiation for CCc1ccc(C2C(C(=O)Nc3ccccc3)=C(C)Nc3c(C(=O)Nc4ccc(C)cc4)cnn32)cc1 (stereo not given) please.
4.34

Tell me measured potentiation for Cc1c(NC(=O)CSc2nnnn2-c2ccc(C(=O)O)cc2)c(=O)n(-c2ccccc2)n1C please.
-3.5

Tell me measured potentiation for O=C(NCCc1ccc(F)cc1)c1ccc2nccnc2c1 please.
1.21

Tell me measured potentiation for CCOc1ccc(NC(=O)CC2C(=O)N(c3cccc(OC)c3)C(=O)N2C2CCCCC2)cc1 (stereo not given) please.
2.76

Tell me measured potentiation for Cc1cc(O)c(C(c2ccccc2)N2CCN(c3ccccc3F)CC2)c(=O)n1Cc1ccco1 (stereo not given) please.
-21.6

Tell me measured potentiation for Cn1c(=O)[nH]c(=O)c2c1nc(NCCCn1ccnc1)n2Cc1cccc(Br)c1 please.
40

Tell me measured potentiation for O=C(NCCCN1CCCC1=O)c1ccc(S(=O)(=O)Nc2ccccc2)cc1 please.
3.61

Tell me measured potentiation for C[N+](C)(C)CCNC(=O)c1c(O)c2c([nH]c1=O)CCCC2 please.
13.8

Tell me measured potentiation for Cc1c(NC(=O)CSc2cccc3cccnc23)c(=O)n(-c2ccccc2)n1C please.
13.1

Tell me measured potentiation for Cc1c(Cl)cccc1NC(=O)NCc1ccc(C)n1C please.
6.36

Tell me measured potentiation for COc1cccc(-c2nc(CS(=O)(=O)CC(=O)N3CCN(c4cc(C)ccc4C)CC3)c(C)o2)c1 please.
20.2

Tell me measured potentiation for COc1ccc(CNC(=O)C2CC(c3ccc(C(F)(F)F)cc3)=NO2)cc1 (stereo not given) please.
11.9
